System: serotonin (5-hydroxytryptophan)
Protocol Notes: serotonin potentiation, 5-hydroxytryptophan test
Type: in vivo, male albino mice
Condition Label: Mus musculus; oral, mice; 1 hour before 150 mg/kg i.p. dl-5-hydroxytryptophan

Compound	Uom	ED50
CCCCCC(=NOCCN)c1ccc(Br)cc1 [Br CH3, reference compound]	mg/kg	10
COCCOCCCCC(=NOCCN)c1ccc(Br)cc1	mg/kg	35
COCCOCCCCC(=NOCCN)c1ccc(Cl)cc1	mg/kg	41
CCOCCCCC(=NOCCN)c1ccc(Cl)cc1	mg/kg	36
COCCCCC(=NOCCN)c1ccc(Br)cc1	mg/kg	22

----------
Tested on: serotonin (5-hydroxytryptophan)
Protocol Notes: serotonin potentiation, 5-hydroxytryptophan test
Assay type: in vivo, male albino mice
Condition Label: Mus musculus; oral, mice; 1 hour before 150 mg/kg i.p. dl-5-hydroxytryptophan

Compound	ED50 [mg/kg]
CCOCCCCCC(=NOCCN)c1ccc(Cl)cc1.Cl	54
COCCCCCC(=NOCCN)c1ccc(Cl)cc1.Cl	36
CCCCC(=NOCCN)c1ccc(Cl)cc1 [Cl H, reference compound]	12
CCCCCC(=NOCCN)c1ccc(Cl)cc1 [Cl CH3, reference compound]	14
Cl.N#CCCCCC(=NOCCN)c1ccc(Br)cc1	20
Cl.N#CCCCCCC(=NOCCN)c1ccc(Cl)cc1	38
Cl.N#CCCCCC(=NOCCN)c1ccc(Cl)cc1	20
